B1: FAM107A (parent)
chain: LQRVLEHRRRNQLIKKKKEELEAK

- Variants of: B1
- protocol-notes: protein stability index of a GFP-peptide fusion (GPS, HEK-293T) (PSI 1-6); higher = more stable;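 further: lentivirally expressed fusions sorted by FACS into six bins by GFP to DsRed ratio, PSI derived from sequencing read proportions per bin multiplied by bin number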
- details: c terminus: a fixed tail appended
// thresholds for protein stability index classes: Low: < 3; Mid: ≥ 3 and < 4; High: ≥ 4

| alteration | classification |
| --- | --- |
| Q12H | Mid |
| E20T | Mid |
| Q2G | High |
| R3L | Low |
| E20G | Low |
| K17G | High |
| A23M | Mid |
| N11V | Mid |

Prompt: Just checking, what class would you give "L5N" here?
Completion: High

Prompt: Just checking, what class would you give "E22H" here?
Completion: Low

Prompt: Just checking, what class would you give "L21P" here?
Completion: Mid

Prompt: Just checking, what class would you give "K18H" here?
Completion: Mid
